For each of the compounds below, state its normalized growth.
Assay: chemical genetic growth profiling, strain panel (AID 1159580);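 note: tested at 20 µM; growth read once vehicle control cultures reached saturation at 30 °C; 1 = growth at the plate median or of vehicle wells; lower values mean less growth of the strain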
Details: S. cerevisiae deletion strains, growth OD, locus YNL250W, strain rad50, stronger effect = lower value
Out of some 5,500 compounds screened, about 2,000 (36%) were called active. About 18% were inconclusive and are not listed. This is one part of the list.
Enter a number only.

Lab note: Clc1ccc(C(c2ccccc2Cl)C(Cl)Cl)cc1 (configuration not stated) gave normalized growth of 0.987

Lab note: CN[C@@H]1C(OC2[C@H](O[C@H]3[C@H](O)[C@@H](O)[C@H](N=C(N)N)[C@@H](O)[C@@H]3N=C(N)N)OC(C)[C@]2(O)CO)OC(CO)C(O)C1O (some centres not stated) gave normalized growth of 0.975

Lab note: CC(C)=CC1C(C(=O)OCc2cccc(Oc3ccccc3)c2)C1(C)C (configuration not stated) gave normalized growth of 0.982

Lab note: COC(=O)[C@@H]1OC(=O)C2OC23[C@@]1(C)CCC1[C@]2(C)C(C[C@@H](O)[C@]13C)C(C)(C)[C@H](OC(C)=O)C[C@@H]2OC(C)=O (some centres not stated) gave normalized growth of 1

Lab note: CC(C)/C(O)=C1/C(=O)O[C@@H](c2ccoc2)[C@]2(C)C(O)[C@@H](O)[C@@]34OC5(C)OC67CC(C)(C(O)[C@]6(O)[C@@H](O)[C@]3(O5)C12)[C@H](CC(=O)O)[C@]74C (some centres not stated) gave normalized growth of 1.01

Lab note: CN(C)CCC(c1ccccc1)c1ccccn1 (configuration not stated) gave normalized growth of 0.997

Lab note: O=C(O)C1CCCNC1 (configuration not stated) gave normalized growth of 1.02

Lab note: FC(F)(F)c1cccc(N2CCNCC2)c1 gave normalized growth of 1.01

Lab note: COc1ccc(-c2cc(=O)c3c(OC)cc(OC)cc3o2)cc1 gave normalized growth of 1.01

Lab note: CC(=O)C1CCC2C3CCC4C[C@H](O)CCC4(C)C3C[C@H](O)C12C (some centres not stated) gave normalized growth of 0.999

Lab note: Cc1nnc(NS(=O)(=O)c2ccc(N)cc2)s1 gave normalized growth of 1.01

Lab note: CCCn1c(=O)c2[nH]c(C3CCCC3)nc2n(CCC)c1=O gave normalized growth of 0.973
